system: goosegrass (Eleusine indica); experiment: Test A postemergence, goosegrass; type: in vivo; details: 31 g ai/ha, postemergence; 0 to 100 scale (0 no effect, 100 complete control), 10 days
Measured Plant response rating, Goosegrass, listed per entry.
// no unit string in output, number only

INSERT INTO results (molecular_string, tested_target, assay_result) VALUES
  ('Cc1cc(C)c2cc3ccccc3c(-c3c(OCOC(=O)C(C)(C)C)c(Cl)nn(C)c3=O)c2c1', 'goosegrass (Eleusine indica)', 30),
  ('Cc1ccc2cc3ccc(C)cc3c(-c3c(OCOC(=O)N(C)C)c(Cl)nn(C)c3=O)c2c1', 'goosegrass (Eleusine indica)', 0),
  ('Cc1ccc2cc3ccc(F)cc3c(-c3c(OCOC(=O)C(C)(C)C)c(C)nn(C)c3=O)c2c1', 'goosegrass (Eleusine indica)', 20),
  ('COC(=O)OCOc1c(C)nn(C)c(=O)c1-c1c2cc(C)ccc2cc2ccc(F)cc12', 'goosegrass (Eleusine indica)', 30),
  ('Cc1ccc2cc3ccc(F)cc3c(-c3c(OCOC(=O)N(C)C)c(C)nn(C)c3=O)c2c1', 'goosegrass (Eleusine indica)', 0);

// Plant response rating, Goosegrass lookup, compound = `Cc1ccc2cc3ccc(F)cc3c(-c3c(OCOC(=O)OC(C)C)c(C)nn(C)c3=O)c2c1` , result: 30

Memo: `COC(=O)OCOc1c(Cl)nn(C)c(=O)c1-c1c2cc(C)ccc2cc2ccc(C)cc12` , reported Plant response rating, Goosegrass: 0

The reported value for `Cn1nc(Cl)c(OCOC(=O)C(C)(C)C)c(-c2c3ccccc3cc3ccccc23)c1=O` in terms of Plant response rating, Goosegrass is 10

Per the records, this compound ( `Cc1ccc2cc3ccc(C)cc3c(-c3c(OCOC(=O)C(C)(C)C)c(Cl)nn(C)c3=O)c2c1` ) has Plant response rating, Goosegrass equal to 30

====

system: oat, wild (wild oat, Avena fatua); test: Test A preemergence, oat, wild; type: in vivo; settings: 125 g ai/ha, 0 to 100 scale, 10 days
reported-metric: Plant response rating, Oat, Wild

INSERT INTO measurements (molecular_string, assay_result) VALUES
  ('Cn1nc(Cl)c(OCOC(=O)C(C)(C)C)c(-c2c3ccccc3cc3ccccc23)c1=O', 0),
  ('Cc1ccc2cc3ccc(F)cc3c(-c3c(OCOC(=O)C(C)(C)C)c(C)nn(C)c3=O)c2c1', 40),
  ('Cc1cc(C)c2cc3ccccc3c(-c3c(OCOC(=O)C(C)(C)C)c(Cl)nn(C)c3=O)c2c1', 0),
  ('Cc1ccc2cc3ccc(C)cc3c(-c3c(OCOC(=O)C(C)(C)C)c(Cl)nn(C)c3=O)c2c1', 0),
  ('Cc1ccc2cc3ccc(C)cc3c(-c3c(OCOC(=O)N(C)C)c(Cl)nn(C)c3=O)c2c1', 0),
  ('Cc1ccc2cc3ccc(F)cc3c(-c3c(OCOC(=O)N(C)C)c(C)nn(C)c3=O)c2c1', 0);

Value of Plant response rating, Oat, Wild reported for the compound `COC(=O)OCOc1c(Cl)nn(C)c(=O)c1-c1c2cc(C)ccc2cc2ccc(C)cc12` is 0

Measured Plant response rating, Oat, Wild, `COC(=O)OCOc1c(C)nn(C)c(=O)c1-c1c2cc(C)ccc2cc2ccc(F)cc12` : 20

Per the record, `Cc1ccc2cc3ccc(F)cc3c(-c3c(OCOC(=O)OC(C)C)c(C)nn(C)c3=O)c2c1` has Plant response rating, Oat, Wild of 0

====

Reported Plant response rating, Wheat values for the following compounds.
test system: wheat (Triticum aestivum); test: Test A postemergence, wheat; assay type: in vivo; conditions: Postemergence, 125 g ai/ha; 0 to 100 scale, 10 days

INSERT INTO measurements (molecular_string, assay_result) VALUES
  ('Cc1ccc2ccc(F)cc2c1-c1c(OCOC(=O)C(C)(C)C)c(Cl)nn(C)c1=O', 70),
  ('Cc1ccc2cc3ccc(F)cc3c(-c3c(OCOC(=O)N(C)C)c(C)nn(C)c3=O)c2c1', 0);

The reported value for `Cc1ccc2cc3ccc(F)cc3c(-c3c(OCOC(=O)OC(C)C)c(C)nn(C)c3=O)c2c1` in terms of Plant response rating, Wheat is 0

Looking up `Cc1ccc2cc3ccc(C)cc3c(-c3c(OCOC(=O)N(C)C)c(Cl)nn(C)c3=O)c2c1` , I see its Plant response rating, Wheat listed as 0

response.value for `Cc1ccc2ccccc2c1-c1c(OCOC(=O)C(C)C)c(Cl)nn(C)c1=O` (field: Plant response rating, Wheat) = 10

Plant response rating, Wheat in this record for `COc1ccc2cc3ccc(F)cc3c(-c3c(OCOC(C)=O)c(C)nn(C)c3=O)c2c1` : 60

Item: `Cc1cc(C)c2cc3ccccc3c(-c3c(OCOC(=O)C(C)(C)C)c(Cl)nn(C)c3=O)c2c1` | Plant response rating, Wheat: 0

Briefly, Plant response rating, Wheat measured for `CC(=O)OCOc1c(C)nn(C)c(=O)c1-c1c2ccccc2c(Cl)c2ccccc12` : 10

====

system: wheat (Triticum aestivum); assay: Test A postemergence, wheat; type: in vivo; settings: Triticum aestivum, post-emergence, 240 h; Postemergence, 125 g ai/ha; 0 to 100 scale, 10 days; read-out: Plant response rating, Wheat
reported-metric: plant injury at 125 g/ha (%)
Your answer is read as %, so omit the unit and give the number.

INSERT INTO measurements (compound, assay_result) VALUES
  ('CC(=O)OCOc1c(Cl)nn(C)c(=O)c1-c1c(C)ccc2ccccc12 [Compound 5]', 30);

Lab book: plant injury at 125 g/ha of CC(=O)OCOc1c(C)nn(C)c(=O)c1-c1c(Br)sc2ccc(F)cc12 [Compound 2] noted as 40

According to the records, this compound CC(=O)OCOc1c(Cl)nn(C)c(=O)c1-c1c2ccccc2cc2ccccc12 [Compound 10] displays plant injury at 125 g/ha of 0

In plain terms, CC(=O)OCOc1c(Cl)nn(C)c(=O)c1-c1c2ccccc2c(Cl)c2ccccc12 [Compound 11] has a documented plant injury at 125 g/ha of 0

Lookup result for CC(=O)OCOc1c(Cl)nn(C)c(=O)c1-c1c(C)sc2cccc(Cl)c12 [Compound 1] ; measured plant injury at 125 g/ha: 0

Entry Cc1ccc2cc3ccc(C)cc3c(-c3c(OCOC(=O)C(C)(C)C)c(Cl)nn(C)c3=O)c2c1 [Compound 9] — recorded plant injury at 125 g/ha = 0

plant injury at 125 g/ha reading for COC(=O)OCOc1c(Cl)nn(C)c(=O)c1-c1c2cc(C)ccc2cc2ccc(C)cc12 [Compound 8] : 0

Record COC(=O)OCOc1c(C)nn(C)c(=O)c1-c1c2cc(C)ccc2cc2ccc(F)cc12 [Compound 15] . Reported plant injury at 125 g/ha: 0

# compound CC(=O)OCOc1c(Cl)nn(C)c(=O)c1-c1c(C)ccc2ccc(C)cc12 [Compound 3] ; its plant injury at 125 g/ha = 20

Entry CC(=O)OCOc1c(C)nn(C)c(=O)c1-c1c2cc(C)ccc2cc2ccc(F)cc12 [Compound 24] ; plant injury at 125 g/ha = 0

====

Measured Plant response rating, Oat, Wild by item
test system: oat, wild (wild oat, Avena fatua); assay: Test A postemergence, oat, wild; assay type: in vivo; conditions: Postemergence, 125 g ai/ha; 0 to 100 scale, 10 days
API doc: respond with a numeric literal and nothing else, no unit.

Use the examples below as a reference point.
INSERT INTO measurements (molecular_string, assay_result) VALUES
  ('Cc1cc(C)c2cc3ccccc3c(-c3c(OCOC(=O)C(C)(C)C)c(Cl)nn(C)c3=O)c2c1', 0),
  ('COC(=O)OCOc1c(Cl)nn(C)c(=O)c1-c1c2cc(C)ccc2cc2ccc(C)cc12', 10),
  ('Cc1ccc2cc3ccc(F)cc3c(-c3c(OCOC(=O)N(C)C)c(C)nn(C)c3=O)c2c1', 0);

With those in mind, consider the next compound.
Measured Plant response rating, Oat, Wild for this entry `Cn1nc(Cl)c(OCOC(=O)C(C)(C)C)c(-c2c3ccccc3cc3ccccc23)c1=O` on oat, wild (wild oat, Avena fatua): 10

====

system: corn (Zea mays); assay: Test A postemergence, corn; type: in vivo; conditions: 31 g ai/ha, postemergence; 0 to 100 scale (0 no effect, 100 complete control), 10 days
reported-metric: Plant response rating, Corn
Please reply with the value in numeric form only.

INSERT INTO assay_data (molecular_string, assay_result) VALUES
  ('Cc1ccc2cc3ccc(F)cc3c(-c3c(OCOC(=O)C(C)(C)C)c(C)nn(C)c3=O)c2c1', 30),
  ('Cc1ccc2cc3ccc(F)cc3c(-c3c(OCOC(=O)N(C)C)c(C)nn(C)c3=O)c2c1', 0),
  ('Cc1ccc2cc3ccc(C)cc3c(-c3c(OCOC(=O)N(C)C)c(Cl)nn(C)c3=O)c2c1', 0),
  ('CC(=O)OCOc1c(C)nn(C)c(=O)c1-c1c2cc(F)ccc2cc2c(C)cc(C)cc12', 0),
  ('Cn1nc(Cl)c(OCOC(=O)C(C)(C)C)c(-c2c3ccccc3cc3ccccc23)c1=O', 10);

Lab note: measured Plant response rating, Corn of `COc1ccc2cc3ccc(F)cc3c(-c3c(OCOC(C)=O)c(C)nn(C)c3=O)c2c1` was 0

Per the records, this compound ( `CC(=O)OCOc1c(Cl)nn(C)c(=O)c1-c1c2cc(C)ccc2cc2ccc(C)cc12` ) has Plant response rating, Corn equal to 0

get_value(item= `Cc1cc(C)c2cc3ccccc3c(-c3c(OCOC(=O)C(C)(C)C)c(Cl)nn(C)c3=O)c2c1` , readout=Plant response rating, Corn) returns 10

// sample `Cc1ccc2cc3ccc(F)cc3c(-c3c(OCOC(=O)OC(C)C)c(C)nn(C)c3=O)c2c1` , its Plant response rating, Corn was 0

Memo: `Cc1cc(Cl)c2ccc(F)cc2c1-c1c(OCOC(=O)C(C)(C)C)c(C)nn(C)c1=O` , reported Plant response rating, Corn: 0

Form: compound = `CC(=O)OCOc1c(C)nn(C)c(=O)c1-c1c2cc(C)ccc2cc2c(F)cc(C)cc12` ; Plant response rating, Corn = 0

Plant response rating, Corn measured on `COc1cc(OC)c2cc3ccc(F)cc3c(-c3c(OCOC(C)=O)c(C)nn(C)c3=O)c2c1` = 0
